Test system: MOLM14;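 also: after 48 h exposure read by CellTiter-Glo luminescence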
experiment-summary: cell viability relative to vehicle control; higher = less cytotoxic
settings: 10 µM; SRSF2 genotype: SRSF2 P95H/wt
Where a name gives a salt, the structure may show the parent alone.
Please provide measured cell viability for the entries that follow.
Answers are plain numbers, in %.

// below: answered molecules
molecule: N#CCNC(=O)c1ccc(-c2ccnc(Nc3ccc(N4CCOCC4)cc3)n2)cc1
readout-unit: %
cell viability: 15

molecule: Nc1cccc(S(=O)(=O)N2CCCN(S(=O)(=O)c3ccc4c(c3)OCCO4)CC2)c1
readout-unit: %
cell viability: 90.5

molecule: OC[C@H]1O[C@H](O[C@H]2[C@H](O)[C@@H](O)C(O)O[C@@H]2CO)[C@H](O)[C@@H](O)[C@@H]1O (mixture of isomers)
readout-unit: %
cell viability: 98.9

Please go through the list and note cell viability for each molecule.
1. C[C@@H](NC(=O)c1ncnc(N)c1Cl)c1ncc(C(=O)Nc2cc(C(F)(F)F)c(Cl)cn2)s1
2. CCCCCCCCN=c1ccn(CCCCCCCCCCn2ccc(=NCCCCCCCC)cc2)cc1 [Octenidine Dihydrochloride]

a:
[86.1, 0.3]
